Tested on: HepG2
protocol-details: Cytotoxicity against human HepG2 cells assessed as total cell protein after 48 hrs by SRB assay
Format: functional, cell-based
assay-context: HepG2, 48 h
Parameter: IC50. Scope: all listed entries.
Record the value in µM, omitting the unit from your answer.

Example entries begin here.
COc1ccc(/C=C/C(=O)c2cccc(-c3cccc(F)c3)c2)cc1; 1.72
COc1cccc(/C=C/C(=O)c2ccc(N)c(-c3ccc(F)cc3)c2)c1OC; 7.37
O=C(/C=C/c1cccc(-c2ccc(F)cc2)c1)c1ccc(O)cc1; 5.12

QUERY: Input COc1cc(/C=C/C(=O)c2ccc(N)c(-c3ccc(F)cc3)c2)cc(Br)c1O , output reported IC50.
RESULT: 4.73

QUERY: Supply recorded IC50 for O=C(/C=C/c1ccc(Cl)cc1)c1cccc(-c2cccc(F)c2)c1 here.
RESULT: 10.4

QUERY: Name the recorded IC50 of the compound listed here: COc1ccc(/C=C/C(=O)c2cccc(-c3ccc(F)cc3)c2)cc1
RESULT: 5.65

QUERY: Give IC50 for COc1ccc(/C=C/C(=O)c2cccc(-c3ccc(F)cc3)c2)cc1OC
RESULT: 5.37

QUERY: Answer with the recorded IC50 for the compound listed here: COc1cccc(/C=C/C(=O)c2cccc(-c3cccc(F)c3)c2)c1OC
RESULT: 9.2

QUERY: Given the compound COc1ccc(/C=C/C(=O)c2ccc(NC(C)=O)c(-c3ccc(F)cc3)c2)cc1OC , write its reported IC50.
RESULT: 5.63

QUERY: Consider the compound COc1ccccc1/C=C/C(=O)c1cccc(-c2cccc(F)c2)c1 . State its measured IC50.
RESULT: 15.4

QUERY: Give the reported value of IC50 for this record: O=C(/C=C/c1ccccc1Br)c1cccc(-c2cccc(F)c2)c1
RESULT: 12.8

====

System: SW480
protocol-details: Cytotoxicity against human SW480 cells assessed as total cell protein after 48 hrs by SRB assay
Type: functional, cell-based
assay-context: SW480, 48 h
pIC50: −log10 of the molar value.
Returns Fulfilled if the recorded pIC50 is greater than or equal to 5, and Not fulfilled otherwise.

COc1ccc(/C=C/C(=O)c2cccc(-c3cccc(F)c3)c2)cc1OC; Fulfilled

QUERY: Determine whether this molecule has pIC50 no lower than 5: COc1cc(/C=C/C(=O)c2cccc(-c3cccc(F)c3)c2)ccc1O
RESULT: Fulfilled

QUERY: # bool: pIC50 of O=C(/C=C/c1ccccc1Br)c1cccc(-c2cccc(F)c2)c1 >= 5
RESULT: Not fulfilled

QUERY: hey, is pIC50 for this one >= 5? COc1ccc(OC)c(/C=C/C(=O)c2ccc(N)c(-c3ccc(OC)c(OC)c3)c2)c1
RESULT: Fulfilled

QUERY: Evaluate O=C(/C=C/c1ccc(Br)cc1)c1cccc(-c2cccc(F)c2)c1 : pIC50 at minimum 5?
RESULT: Not fulfilled

QUERY: Evaluate COc1ccc(/C=C/C(=O)c2ccc(NC(C)=O)c(-c3ccc(F)cc3)c2)cc1OC : pIC50 at minimum 5?
RESULT: Fulfilled

====

Tested on: HepG2
protocol-details: Cytotoxicity against human HepG2 cells assessed as total cell protein after 48 hrs by SRB assay
Type: functional, cell-based
assay-context: HepG2, 48 h
reported-metric: pIC50
In textbook form, pIC50 equals minus log to base ten of the concentration in mol/L.

COc1ccc(/C=C/C(=O)c2cccc(-c3cccc(F)c3)c2)cc1OC; 5.93

QUERY: Tell me measured pIC50 for Nc1ccc(C(=O)/C=C/c2ccc(O)c(F)c2)cc1-c1ccc(F)cc1 please.
RESULT: 4.93

QUERY: Annotate the compound COc1ccc(/C=C/C(=O)c2ccc(N)c(-c3ccc(F)cc3)c2)cc1OC with its measured pIC50.
RESULT: 5.42

QUERY: Look up pIC50 of COc1cc(/C=C/C(=O)c2ccc(N)c(-c3ccc(F)cc3)c2)ccc1O and report it.
RESULT: 5.37

QUERY: Quick one: give measured pIC50 for COc1ccc(-c2cc(C(=O)/C=C/c3cccc(OC)c3OC)ccc2N)cc1OC
RESULT: 5.27

QUERY: Fill in pIC50 for record COc1ccc(-c2cc(C(=O)/C=C/c3cc(OC)c(OC)c(OC)c3)ccc2N)cc1OC
RESULT: 5.57

QUERY: Identify pIC50 associated with the compound COc1ccc(OC)c(/C=C/C(=O)c2ccc(N)c(-c3ccc(OC)c(OC)c3)c2)c1
RESULT: 5.68

QUERY: Tell me measured pIC50 for COc1ccc(-c2cc(C(=O)/C=C/c3ccc(F)cc3)ccc2N)cc1OC please.
RESULT: 5.05

QUERY: Report pIC50, nothing else, for this compound: O=C(/C=C/c1cccc(Br)c1)c1cccc(-c2cccc(F)c2)c1
RESULT: 5.16

QUERY: Provide only the value of recorded pIC50 for COc1ccc(/C=C/C(=O)c2ccc(N)c(-c3ccc(OC)c(OC)c3)c2)c(OC)c1
RESULT: 5.67

QUERY: // Input: COc1cc(/C=C/C(=O)c2cccc(-c3cccc(F)c3)c2)ccc1O . Output its pIC50 only.
RESULT: 5.17

QUERY: Report pIC50 for O=C(/C=C/c1cccc(-c2ccc(F)cc2)c1)c1ccc(F)cc1
RESULT: 4.91

====

Below, each entry is listed alongside its reported IC50.
Test system: SW480
protocol-details: Cytotoxicity against human SW480 cells assessed as total cell protein after 48 hrs by SRB assay
Format: functional, cell-based
assay-context: SW480, 48 h
Kindly answer with a numeric value in µM, unit omitted.

O=C(/C=C/c1cccc(-c2ccc(F)cc2)c1)c1ccc(O)cc1; 12
COc1ccc(OC)c(/C=C/C(=O)c2ccc(N)c(-c3ccc(F)cc3)c2)c1; 7.83
COc1ccc(-c2cc(C(=O)/C=C/c3cccc(OC)c3OC)ccc2N)cc1OC; 8.33
COc1ccc(/C=C/C(=O)c2ccc(N)c(-c3ccc(F)cc3)c2)c(OC)c1; 12.4
COc1ccc(/C=C/C(=O)c2ccc(N)c(-c3ccc(F)cc3)c2)cc1; 7.23
COc1ccc(/C=C/C(=O)c2cccc(-c3ccc(F)cc3)c2)cc1; 8.35
COc1ccc(/C=C/C(=O)c2ccc(N)c(-c3ccc(OC)c(OC)c3)c2)c(OC)c1; 9.3
COc1ccc(-c2cc(C(=O)/C=C/c3ccc(F)cc3)ccc2N)cc1OC; 14.7

Turning to the following molecule.
QUERY: Quickly give me recorded IC50 for Nc1ccc(C(=O)/C=C/c2ccc(O)c(F)c2)cc1-c1ccc(F)cc1
RESULT: 31.7

====

Each entry below carries its reported IC50.
System: SW480
protocol-details: Cytotoxicity against human SW480 cells assessed as total cell protein after 48 hrs by SRB assay
Format: functional, cell-based
assay-context: SW480, 48 h
The figure you give is taken to be in µM; do not add the unit.

Some solved entries appear below for comparison.
O=C(/C=C/c1cccc(-c2ccc(F)cc2)c1)c1ccc(F)cc1; 13.5
COc1cc(/C=C/C(=O)c2ccc(N)c(-c3ccc(F)cc3)c2)ccc1O; 8.35
COc1cc(/C=C/C(=O)c2ccc(N)c(-c3ccc(F)cc3)c2)cc(Br)c1O; 22.9

Proceeding to the next compound to report its IC50.
QUERY: Return reported IC50. Input compound: COc1cccc(/C=C/C(=O)c2cccc(-c3cccc(F)c3)c2)c1OC
RESULT: 13.5
